- Test description: Tested for biphenyl analogue in charles river CD-1 strain adult male albino mice after intraperitoneal administration
- Format: ADME, organism-based
- Conditions used: CD-1, mouse, in vivo, ip
Threshold 2 mg/kg. LD50 below it: YES. LD50 at it or above: NO.

[
  {
    "Molecule": "C[N+]1(C)CCOC(O)(c2ccc(-c3ccc(-c4ccc(C5(O)C[N+](C)(C)CCO5)cc4)cc3)cc2)C1.[Br-].[Br-] (configuration not stated)",
    "Qualitative label": "YES"
  },
  {
    "Molecule": "C[N+](C)(CCS)CC(=O)c1ccc(-c2ccc(-c3ccc(C(=O)C[N+](C)(C)CCS)cc3)cc2)cc1.[Br-].[Br-]",
    "Qualitative label": "NO"
  },
  {
    "Molecule": "CCOCC[N+](C)(C)CC(=O)c1ccc(-c2ccc(-c3ccc(C(=O)C[N+](C)(C)CCOCC)cc3)cc2)cc1.[Br-].[Br-]",
    "Qualitative label": "YES"
  },
  {
    "Molecule": "CC(=O)CCC[N+](C)(C)CC(=O)c1ccc(-c2ccc(-c3ccc(C(=O)C[N+](C)(C)CCCC(C)=O)cc3)cc2)cc1.[Br-].[Br-]",
    "Qualitative label": "NO"
  },
  {
    "Molecule": "CC(=O)OCC[N+](C)(C)CC(=O)c1ccc(-c2ccc(-c3ccc(C(=O)C[N+](C)(C)CCOC(C)=O)cc3)cc2)cc1.[Br-].[Br-]",
    "Qualitative label": "YES"
  },
  {
    "Molecule": "CC(=O)SCC[N+](C)(C)CC(=O)c1ccc(-c2ccc(-c3ccc(C(=O)C[N+](C)(C)CCSC(C)=O)cc3)cc2)cc1.[Br-].[Br-]",
    "Qualitative label": "YES"
  },
  {
    "Molecule": "CCCCC[N+](C)(C)CC(=O)c1ccc(-c2ccc(-c3ccc(C(=O)C[N+](C)(C)CCCCC)cc3)cc2)cc1.[Br-].[Br-]",
    "Qualitative label": "NO"
  }
]

###

- Test description: Tested for terphenyl analogue in charles river CD-1 strain adult male albino mice after intraperitoneal administration.
- Type: ADME, organism-based
- Conditions used: CD-1, mouse, in vivo, ip
Reported LD50 values are given for each entry in this list.

[
  {
    "Compound": "CC(=O)SCC[N+](C)(C)CC(=O)c1ccc(-c2ccc(-c3ccc(C(=O)C[N+](C)(C)CCSC(C)=O)cc3)cc2)cc1.[Br-].[Br-]",
    "LD50 / mg/kg": 3.05
  },
  {
    "Compound": "CCCCC[N+](C)(C)CC(=O)c1ccc(-c2ccc(-c3ccc(C(=O)C[N+](C)(C)CCCCC)cc3)cc2)cc1.[Br-].[Br-]",
    "LD50 / mg/kg": 5.32
  },
  {
    "Compound": "C[N+]1(C)CCOC(O)(c2ccc(-c3ccc(-c4ccc(C5(O)C[N+](C)(C)CCO5)cc4)cc3)cc2)C1.[Br-].[Br-] (stereo unspecified)",
    "LD50 / mg/kg": 0.107
  },
  {
    "Compound": "CC(=O)CCC[N+](C)(C)CC(=O)c1ccc(-c2ccc(-c3ccc(C(=O)C[N+](C)(C)CCCC(C)=O)cc3)cc2)cc1.[Br-].[Br-]",
    "LD50 / mg/kg": 4.27
  },
  {
    "Compound": "CC(=O)OCC[N+](C)(C)CC(=O)c1ccc(-c2ccc(-c3ccc(C(=O)C[N+](C)(C)CCOC(C)=O)cc3)cc2)cc1.[Br-].[Br-]",
    "LD50 / mg/kg": 0.333
  },
  {
    "Compound": "CCOCC[N+](C)(C)CC(=O)c1ccc(-c2ccc(-c3ccc(C(=O)C[N+](C)(C)CCOCC)cc3)cc2)cc1.[Br-].[Br-]",
    "LD50 / mg/kg": 16.6
  }
]

###

Reported mortality values are given for each entry in this list.
- Tested on: Mus musculus
- Test description: Tested for percentage mortality in charles river CD-1 strain adult male albino mice after introducing antagonist neostigmine at intraperitoneal dosage of 0.2 mg/kg, 1 min prior to compound
- Type: functional
- Parameters: concentration or dose not given beside the values
- Conditions used: ip

[
  {
    "Compound": "CCCCC[N+](C)(C)CC(=O)c1ccc(-c2ccc(-c3ccc(C(=O)C[N+](C)(C)CCCCC)cc3)cc2)cc1.[Br-].[Br-]",
    "Assay system": "Mus musculus",
    "Uom": "%",
    "mortality": 100
  },
  {
    "Compound": "CC(=O)SCC[N+](C)(C)CC(=O)c1ccc(-c2ccc(-c3ccc(C(=O)C[N+](C)(C)CCSC(C)=O)cc3)cc2)cc1.[Br-].[Br-]",
    "Assay system": "Mus musculus",
    "Uom": "%",
    "mortality": 80
  },
  {
    "Compound": "CC(=O)OCC[N+](C)(C)CC(=O)c1ccc(-c2ccc(-c3ccc(C(=O)C[N+](C)(C)CCOC(C)=O)cc3)cc2)cc1.[Br-].[Br-]",
    "Assay system": "Mus musculus",
    "Uom": "%",
    "mortality": 20
  },
  {
    "Compound": "C[N+]1(C)CCOC(O)(c2ccc(-c3ccc(-c4ccc(C5(O)C[N+](C)(C)CCO5)cc4)cc3)cc2)C1.[Br-].[Br-] (stereo not given)",
    "Assay system": "Mus musculus",
    "Uom": "%",
    "mortality": 80
  },
  {
    "Compound": "CCOCC[N+](C)(C)CC(=O)c1ccc(-c2ccc(-c3ccc(C(=O)C[N+](C)(C)CCOCC)cc3)cc2)cc1.[Br-].[Br-]",
    "Assay system": "Mus musculus",
    "Uom": "%",
    "mortality": 90
  }
]

###

- Test description: Ratio of terphenyl LD50 doses to biphenyl analogues in charles river CD-1 strain adult male albino mice
- Type: ADME, organism-based
- Conditions used: CD-1, mouse, in vivo
Reported selectivity ratio values are given for each entry in this list.

[
  {
    "Molecule": "CC(=O)OCC[N+](C)(C)CC(=O)c1ccc(-c2ccc(-c3ccc(C(=O)C[N+](C)(C)CCOC(C)=O)cc3)cc2)cc1.[Br-].[Br-]",
    "selectivity ratio": 2.66
  },
  {
    "Molecule": "CCOCC[N+](C)(C)CC(=O)c1ccc(-c2ccc(-c3ccc(C(=O)C[N+](C)(C)CCOCC)cc3)cc2)cc1.[Br-].[Br-]",
    "selectivity ratio": 9.02
  },
  {
    "Molecule": "C[N+]1(C)CCOC(O)(c2ccc(-c3ccc(-c4ccc(C5(O)C[N+](C)(C)CCO5)cc4)cc3)cc2)C1.[Br-].[Br-] (stereo unspecified)",
    "selectivity ratio": 0.82
  },
  {
    "Molecule": "CCCCC[N+](C)(C)CC(=O)c1ccc(-c2ccc(-c3ccc(C(=O)C[N+](C)(C)CCCCC)cc3)cc2)cc1.[Br-].[Br-]",
    "selectivity ratio": 1.38
  },
  {
    "Molecule": "CC(=O)CCC[N+](C)(C)CC(=O)c1ccc(-c2ccc(-c3ccc(C(=O)C[N+](C)(C)CCCC(C)=O)cc3)cc2)cc1.[Br-].[Br-]",
    "selectivity ratio": 1.38
  },
  {
    "Molecule": "CC(=O)SCC[N+](C)(C)CC(=O)c1ccc(-c2ccc(-c3ccc(C(=O)C[N+](C)(C)CCSC(C)=O)cc3)cc2)cc1.[Br-].[Br-]",
    "selectivity ratio": 22.9
  }
]
